# EXPERIMENTAL DETAILS: Example 4: dose response of FKBP constructs 160-255, Ec50, Ec90 and fold change (raw and normalized to mCherry)
# Assay type: cell-based
# ASSAY CONTEXT: FKBP constructs 160-255; not normalized; read-out: EC90

MOLECULE	EC90, nM
FKBP-187 (protein, Description of sequence: Construct Name: FKBP-187; Mutation(s): Q72R Q84E A117W V85R DRD M54A L80G) HCPIKSRKGDVLHAHYTGKLEDGTEFDSSLPRNQPFVFSGGTGERIKGWDQGLLGMCEGEKRKLVIPSELGYGERGWPPKIPGGATLVFEVELLKIER	14500
FKBP-206 (protein, Description of sequence: Construct Name: FKBP-206; Mutation(s): Q72R Q84E A117W V85R DRD M54A K135Y) HCPIKSRKGDVLHAHYTGKLEDGTEFDSSLPRNQPFVFSLGTGERIKGWDQGLLGMCEGEKRKLVIPSELGYGERGWPPKIPGGATLVFEVELLYIER	573
FKBP-229: FKBP13 DRD-AcGFP construct of Table 10 (protein, Description of sequence: Construct Name: FKBP-229; Mutation(s): Q72R Q84E A117W V85R DRD E137R M54A) HCPIKSRKGDVLHAHYTGKLEDGTEFDSSLPRNQPFVFSLGTGERIKGWDQGLLGMCEGEKRKLVIPSELGYGERGWPPKIPGGATLVFEVELLKIRR	484
